# CC50 annotations
Assay info: Cytotoxicity against mock-infected human MT4 cells by MTT assay
Assay type: cell-based
Recorded endpoint: CC50

[[record]]
mol = "Nc1ccn([C@H]2CC[C@@H](CO)O2)c(=O)n1"
recorded_endpoint = "CC50"
observed_value = "> 95 µM"

[[record]]
mol = "CCOC(=O)c1ccc(NC(=O)CSc2nc3cnccc3n2-c2c(C)cc(C)cc2C)c(Br)c1"
recorded_endpoint = "CC50"
observed_value = "22 µM"

[[record]]
mol = "Cc1cc(C)c(-n2c(SCC(=O)Nc3ccc(C)cc3[N+](=O)[O-])nc3cccnc32)c(C)c1"
recorded_endpoint = "CC50"
observed_value = "144 µM"

[[record]]
mol = "Cc1cc(C)c(-n2c(SCC(=O)Nc3ccc(Cl)cc3Cl)nc3cnccc32)c(C)c1"
recorded_endpoint = "CC50"
observed_value = "140 µM"

[[record]]
mol = "Cc1cc(C)c(-n2c(SCC(=O)Nc3ccc(C)cc3Br)nc3cccnc32)c(C)c1"
recorded_endpoint = "CC50"
observed_value = "0.99 µM"

[[record]]
mol = "CC(=O)c1ccc(NC(=O)CSc2nc3cccnc3n2-c2c(C)cc(C)cc2C)c(Br)c1"
recorded_endpoint = "CC50"
observed_value = "46 µM"

[[record]]
mol = "Cc1cc(C)c(-n2c(SCC(=O)Nc3ccccc3Br)nc3cccnc32)c(C)c1"
recorded_endpoint = "CC50"
observed_value = "5.6 µM"

[[record]]
mol = "Cc1cn([C@H]2C[C@H](N=[N+]=[N-])[C@@H](CO)O2)c(=O)[nH]c1=O"
recorded_endpoint = "CC50"
observed_value = "≥ 50 µM"

[[record]]
mol = "CC(C)Nc1cccnc1N1CCN(C(=O)c2cc3cc(NS(C)(=O)=O)ccc3[nH]2)CC1"
recorded_endpoint = "CC50"
observed_value = "> 36 µM"

[[record]]
mol = "Cc1cc(C)c(-n2c(SCC(=O)Nc3ccccc3[N+](=O)[O-])nc3cnccc32)c(C)c1"
recorded_endpoint = "CC50"
observed_value = "9.9 µM"

[[record]]
mol = "CC(=O)c1ccc(NC(=O)CSc2nc3cnccc3n2-c2c(C)cc(C)cc2C)c(Br)c1"
recorded_endpoint = "CC50"
observed_value = "61 µM"

[[record]]
mol = "Cc1cc(C)c(-n2c(SCC(=O)Nc3ccccc3[N+](=O)[O-])nc3cccnc32)c(C)c1"
recorded_endpoint = "CC50"
observed_value = "39 µM"

[[record]]
mol = "CCOC(=O)c1ccc(NC(=O)CSc2nc3cccnc3n2-c2c(C)cc(C)cc2C)c(Br)c1"
recorded_endpoint = "CC50"
observed_value = "117 µM"

[[record]]
mol = "Cc1cc(C)c(-n2c(SCC(=O)Nc3ccccc3C)nc3cccnc32)c(C)c1"
recorded_endpoint = "CC50"
observed_value = "15 µM"

[[record]]
mol = "Cc1cc(C)c(-n2c(SCC(=O)Nc3ccccc3C)nc3cnccc32)c(C)c1"
recorded_endpoint = "CC50"
observed_value = "22 µM"

[[record]]
mol = "Cc1cc(C)c(-n2c(SCC(=O)Nc3ccc(S(N)(=O)=O)cc3Br)nc3cnccc32)c(C)c1"
recorded_endpoint = "CC50"
observed_value = "9.7 µM"

[[record]]
mol = "Cc1cc(C)c(-n2c(SCC(=O)Nc3ccc(S(N)(=O)=O)cc3Br)nc3cccnc32)c(C)c1"
recorded_endpoint = "CC50"
observed_value = "22 µM"


====

Assay info: Selectivity index, ratio of CC50 for human MT4 cells to EC50 for HIV-1 3B
Format: toxicity, cell-based
Stated conditions: read-out: Ratio CC50/EC50
Reported selectivity ratio values are given for each entry in this list.
Recorded endpoint: selectivity ratio

[[record]]
mol = "Nc1ccn([C@H]2CC[C@@H](CO)O2)c(=O)n1"
observed_value = "> 68"

[[record]]
mol = "Cc1cc(C)c(-n2c(SCC(=O)Nc3ccccc3Cl)nc3cccnc32)c(C)c1"
observed_value = "< 1"

[[record]]
mol = "Cc1cc(C)c(-n2c(SCC(=O)Nc3cccnc3Cl)nc3cnccc32)c(C)c1"
observed_value = 12

[[record]]
mol = "O=C1Nc2ccc(Cl)cc2[C@@](C#CC2CC2)(C(F)(F)F)O1"
observed_value = "> 964"

[[record]]
mol = "Cc1cc(C)c(-n2c(SCC(=O)Nc3ccc(S(N)(=O)=O)cc3Br)nc3cccnc32)c(C)c1"
observed_value = 30

[[record]]
mol = "COC(=O)c1ccc(NC(=O)CSc2nc3cccnc3n2-c2c(C)cc(C)cc2C)c(Br)c1"
observed_value = 9

[[record]]
mol = "Cc1cc(C)c(-n2c(SCC(=O)Nc3ccccc3C)nc3cccnc32)c(C)c1"
observed_value = "< 1"

[[record]]
mol = "CCOC(=O)c1ccc(NC(=O)CSc2nc3cnccc3n2-c2c(C)cc(C)cc2C)c(Br)c1"
observed_value = 5

[[record]]
mol = "Cc1cc(C)c(-n2c(SCC(=O)Nc3ccccc3C)nc3cnccc32)c(C)c1"
observed_value = "< 1"

[[record]]
mol = "Cc1cc(C)c(-n2c(SCC(=O)Nc3ccc(C)cc3[N+](=O)[O-])nc3cnccc32)c(C)c1"
observed_value = "≤ 5"

[[record]]
mol = "CC(=O)c1ccc(NC(=O)CSc2nc3cccnc3n2-c2c(C)cc(C)cc2C)c(Br)c1"
observed_value = 13

[[record]]
mol = "Cc1cc(C)c(-n2c(SCC(=O)Nc3ccc([N+](=O)[O-])cc3Cl)nc3cccnc32)c(C)c1"
observed_value = "< 1"

[[record]]
mol = "Cc1cn([C@H]2C[C@H](N=[N+]=[N-])[C@@H](CO)O2)c(=O)[nH]c1=O"
observed_value = "≥ 8300"

[[record]]
mol = "Cc1cc(C)c(-n2c(SCC(=O)Nc3ccc([N+](=O)[O-])cc3Cl)nc3cnccc32)c(C)c1"
observed_value = 20

[[record]]
mol = "Cc1cc(C)c(-n2c(SCC(=O)Nc3cccnc3Cl)nc3cccnc32)c(C)c1"
observed_value = "< 1"

[[record]]
mol = "Cc1cc(C)c(-n2c(SCC(=O)Nc3ccccc3Cl)nc3cnccc32)c(C)c1"
observed_value = "< 1"

[[record]]
mol = "Cc1cc(C)c(-n2c(SCC(=O)Nc3ccccc3)nc3cnccc32)c(C)c1"
observed_value = "< 1"

[[record]]
mol = "Cc1cc(C)c(-n2c(SCC(=O)Nc3ccc(S(N)(=O)=O)cc3Br)nc3cnccc32)c(C)c1"
observed_value = 46

[[record]]
mol = "Cc1cc(C)c(-n2c(SCC(=O)Nc3ccccc3)nc3cccnc32)c(C)c1"
observed_value = "< 1"


====

System: Human immunodeficiency virus 1
Assay info: Antiviral activity against HIV-1 RES056 harboring RT K103N/Y181C mutant gene infected human MT4 cells assessed as inhibition in viral syncytium formation by MTT assay
Assay type: functional, organism-based
Stated conditions: Human immunodeficiency virus 1, RES056, MT4
pEC50: −log10 of the molar value.
pEC50 for assorted molecules
Recorded endpoint: pEC50

[[record]]
mol = "CC(C)Nc1cccnc1N1CCN(C(=O)c2cc3cc(NS(C)(=O)=O)ccc3[nH]2)CC1"
recorded_endpoint = "pEC50"
observed_value = "< 4.44"

[[record]]
mol = "Cc1cc(C)c(-n2c(SCC(=O)Nc3ccc(S(N)(=O)=O)cc3Br)nc3cnccc32)c(C)c1"
recorded_endpoint = "pEC50"
observed_value = "< 5.01"

[[record]]
mol = "Cc1cc(C)c(-n2c(SCC(=O)Nc3cccnc3Cl)nc3cnccc32)c(C)c1"
recorded_endpoint = "pEC50"
observed_value = "< 4.66"

[[record]]
mol = "Cc1cc(C)c(-n2c(SCC(=O)Nc3ccc(C)cc3[N+](=O)[O-])nc3cnccc32)c(C)c1"
recorded_endpoint = "pEC50"
observed_value = "< 5.21"

[[record]]
mol = "COC(=O)c1ccc(NC(=O)CSc2nc3cccnc3n2-c2c(C)cc(C)cc2C)c(Br)c1"
recorded_endpoint = "pEC50"
observed_value = "< 4.10"

[[record]]
mol = "Cc1cc(C)c(-n2c(SCC(=O)Nc3ccccc3[N+](=O)[O-])nc3cccnc32)c(C)c1"
recorded_endpoint = "pEC50"
observed_value = "< 4.41"

[[record]]
mol = "CCOC(=O)c1ccc(NC(=O)CSc2nc3cccnc3n2-c2c(C)cc(C)cc2C)c(Br)c1"
recorded_endpoint = "pEC50"
observed_value = "< 3.93"

[[record]]
mol = "Cc1cn([C@H]2C[C@H](N=[N+]=[N-])[C@@H](CO)O2)c(=O)[nH]c1=O"
recorded_endpoint = "pEC50"
observed_value = 8.00

[[record]]
mol = "CC(=O)c1ccc(NC(=O)CSc2nc3cccnc3n2-c2c(C)cc(C)cc2C)c(Br)c1"
recorded_endpoint = "pEC50"
observed_value = "< 4.34"


====

Test system: Human immunodeficiency virus 1
Assay info: Antiviral activity against HIV-1 RES056 harboring RT K103N/Y181C mutant gene infected human MT4 cells assessed as inhibition in viral syncytium formation by MTT assay
Assay type: functional, organism-based
Stated conditions: Human immunodeficiency virus 1, RES056, MT4
pEC50: −log10 of the molar value.
We begin with a simple list: items and their reported pEC50.
Recorded endpoint: pEC50

[[record]]
compound = "CCOC(=O)c1ccc(NC(=O)CSc2nc3cnccc3n2-c2c(C)cc(C)cc2C)c(Br)c1"
recorded_endpoint = "pEC50"
observed_value = "< 4.66"

[[record]]
compound = "Cc1cc(C)c(-n2c(SCC(=O)Nc3ccc(Cl)cc3Cl)nc3cnccc32)c(C)c1"
recorded_endpoint = "pEC50"
observed_value = "< 3.85"

[[record]]
compound = "Cc1ccnc2c1NC(=O)c1cccnc1N2C1CC1 [NEVIRAPINE]"
recorded_endpoint = "pEC50"
observed_value = "< 4.82"

[[record]]
compound = "Cc1cc(C)c(-n2c(SCC(=O)Nc3ccc(S(N)(=O)=O)cc3Br)nc3cccnc32)c(C)c1"
recorded_endpoint = "pEC50"
observed_value = "< 4.66"

[[record]]
compound = "Cc1cc(C)c(-n2c(SCC(=O)Nc3ccccc3Br)nc3cnccc32)c(C)c1"
recorded_endpoint = "pEC50"
observed_value = "< 4.66"

[[record]]
compound = "Cc1cc(C)c(-n2c(SCC(=O)Nc3ccc([N+](=O)[O-])cc3Cl)nc3cnccc32)c(C)c1"
recorded_endpoint = "pEC50"
observed_value = "< 4.54"

[[record]]
compound = "Cc1cc(C)c(-n2c(SCC(=O)Nc3ccccc3[N+](=O)[O-])nc3cnccc32)c(C)c1"
recorded_endpoint = "pEC50"
observed_value = "< 5.00"

[[record]]
compound = "CC(=O)c1ccc(NC(=O)CSc2nc3cnccc3n2-c2c(C)cc(C)cc2C)c(Br)c1"
recorded_endpoint = "pEC50"
observed_value = "< 4.21"

[[record]]
compound = "COC(=O)c1ccc(NC(=O)CSc2nc3cnccc3n2-c2c(C)cc(C)cc2C)c(Br)c1"
recorded_endpoint = "pEC50"
observed_value = "< 4.57"

